test system: T-47D breast; assay: NCI tumour cell line growth inhibition, 48 h
measurement.name: TGI (µM)
State just the number; it will be interpreted in µM.

input: TGI for C#CC(C)(C)Oc1cc(OC)c2c(=O)c3ccccc3n(C)c2c1 ?
output: 27.9

input: Another molecule to look at: O=C(Oc1c(I)ccccc1=O)c1ccc([N+](=O)[O-])cc1
output: 1.33

input: Another molecule to look at: O=C1c2c(O)cccc2C(C(=O)CCCCC(=O)C2c3cccc(O)c3C(=O)c3c(O)cccc32)c2cccc(O)c21
output: 0.919

input: Another molecule to look at: COc1cc(C(c2cc3c(cc2O)OCO3)N2CCCC2)cc(OC)c1OC (stereo unspecified)
output: 45.7

###

system: SF-539 CNS; experiment: NCI tumour cell line growth inhibition, 48 h; in the data active means GI50 below about 0.43 µM; inactive means the rest
Returns: one label drawn from active, inactive

input: Dear colleague, could you share the recorded outcome for COC(=O)c1cc(Nc2ccc(O)c3c2C(=O)c2c([N+](=O)[O-])ccc(O)c2C3=O)cc(C(=O)OC)c1 when you have a moment?
output: inactive

input: Another compound to look at: Nc1ncnc2occ(-c3ccc(NC(=O)Nc4cc(C(F)(F)F)cc(C(F)(F)F)c4)cc3)c12
output: inactive

input: Another compound to look at: CC(C)(C)n1cc(-c2ccnc(NCCNS(=O)(=O)c3ccc(Br)cc3)c2)c(-c2cccc(O)c2)n1
output: inactive

input: Another compound to look at: O=C(N[C@@H]1CCCc2ccccc21)[C@H](CCC(=O)N1CCN(C2CCCCC2)CC1)N1C(=O)[C@@H](N2C(=O)OC[C@@H]2c2ccccc2)[C@H]1/C=C/c1ccccc1
output: inactive

input: Another compound to look at: Cc1ccc(NCSc2ccc(Cl)cc2)cc1
output: inactive

input: Another compound to look at: CC(C)OP(=O)(CP(=O)(OC(C)C)OC(C)C)OC(C)C.[CH3][Sn]([Br])([Br])[Br]
output: inactive

input: Another compound to look at: Cc1ccc([P+](Cc2ccc([N+](=O)[O-])cc2)(c2ccc(C)cc2)c2ccc(C)cc2)cc1
output: inactive

input: Another compound to look at: CC[C@@]1(OC(=O)CN)C(=O)OCc2c1cc1n(c2=O)Cc2cc3cc(N)ccc3nc2-1
output: active

###

What TGI was measured for each of the following?
test system: RPMI-8226 leukemia; assay: NCI tumour cell line growth inhibition, 48 h

input: TGI for Cc1cs/c(=N\C(P(=O)(O)O)P(=O)(O)O)n1C ?
output: > 100 µM

input: Another compound to look at: COc1ccc(N2C(=O)C3c4[nH]c5ccc(C)cc5c4C4CCC(C(C)C)CC4C3C2=O)cc1 (configuration not stated)
output: > 100 µM

input: Another compound to look at: O=C(/C=C/N1CCN(c2cccc(C(F)(F)F)c2)CC1)c1ccc(Cl)cc1Cl
output: 70.8 µM

input: Another compound to look at: N#CC1c2ccccc2-c2ccccc2N1C(=O)c1ccccc1 (configuration not stated)
output: 5.32 µM

input: Another compound to look at: c1ccc2c3c(ccc2c1)CSCc1ccc2ccccc2c1-3
output: > 100 µM

input: Another compound to look at: CCCCCCCCCCCCCCCCOCC(CC(F)(F)P(=O)(O)O)OC(C)=O (configuration not stated)
output: > 50 µM

input: Another compound to look at: COc1cc(C2C(Cl)C(=O)N2c2ccc(Br)cc2)cc(I)c1O (configuration not stated)
output: > 100 µM

input: Another compound to look at: CC(CS(=O)(=O)Cc1ccccc1)C(N)=O (configuration not stated)
output: > 100 µM

input: Another compound to look at: Cc1ccc([P+](Cc2ccc([N+](=O)[O-])cc2)(c2ccc(C)cc2)c2ccc(C)cc2)cc1
output: 4.86 µM

input: Another compound to look at: COc1ccc(/C=N/Nc2[nH]c(=S)nc3[nH]ncc23)cc1
output: > 100 µM

input: Another compound to look at: CC(C)OP(=O)(OC(C)C)C(N(C)C)P(=O)(OC(C)C)OC(C)C.[Cl][Sn]([Cl])([Cl])[c]1ccccc1
output: 5 µM

input: Another compound to look at: O=C1c2ccccc2-c2cc3ccccc3c(=O)n21
output: > 100 µM

input: Another compound to look at: CC(C)=CCN(N=O)c1ncnc2nc[nH]c12
output: > 100 µM

input: Another compound to look at: Oc1cc2cc(-c3ccccc3)[nH]c2c2ccccc12
output: 67.6 µM

input: Another compound to look at: C=C(CCOC)CCC1CCCCC(=C)C1=O (configuration not stated)
output: > 100 µM

input: Another compound to look at: N#Cc1c(=O)c2cccnc2n2c1[nH]c1ccccc12
output: > 100 µM

input: Another compound to look at: CCCCn1cc(C(=O)O)c(=O)c2c3sccc3ccc21
output: > 100 µM

input: Another compound to look at: CCOP(=O)(OCC)/C(C#N)=C\c1cccc2ccccc12
output: > 66.5 µM

input: Another compound to look at: [N-]=[N+]=NC1(c2ccccc2)C(=O)Nc2ccccc2C1=O (configuration not stated)
output: > 100 µM

input: Another compound to look at: C[C@@H](NC(=O)Cc1cc(F)cc(F)c1)C(=O)N[C@@]1(C)N=C(c2ccccc2)c2ccccc2N(C)C1=O
output: 10.5 µM

input: Another compound to look at: CN(C)c1ccc(/C=C(\NC(=O)c2ccccc2)C(=O)Nc2ccccc2C(=O)NN2C(=O)CSC2c2ccc(N(C)C)cc2)cc1 (configuration not stated)
output: > 100 µM

input: Another compound to look at: COc1ccc(Cn2nc(OCc3ccccn3)c3cc([N+](=O)[O-])ccc32)cc1
output: > 100 µM

input: Another compound to look at: C#CC(C)(C)Oc1cc(OC)c2c(=O)c3ccccc3n(C)c2c1
output: 25 µM

input: Another compound to look at: CC(C)(CN1CCCCC1)C(=O)CC(SCCS(=O)(=O)O)c1ccc(Br)cc1 (configuration not stated)
output: 4.66 µM

input: Another compound to look at: CC(C)(C)n1cc(-c2ccnc(NCCNS(=O)(=O)c3ccc(Br)cc3)c2)c(-c2cccc(O)c2)n1
output: 5 µM

input: Another compound to look at: CC1=C(C#N)C(N)=C2C(C)=C(C#N)C(N)=C12
output: > 100 µM

input: Another compound to look at: O=C1c2cc3c(cc2CC12Cc1cc4c(cc1C2)CCC4)CCC3
output: > 100 µM

input: Another compound to look at: NC(Cc1nn[nH]n1)C(=O)O (configuration not stated)
output: > 100 µM

input: Another compound to look at: C/C(=N\N=C(N)N)c1c(C(=O)OCCCCCCOC(=O)c2nc3sccn3c2/C(C)=N/N=C(N)N)nc2sccn12
output: > 100 µM

input: Another compound to look at: O=C(c1cccs1)N(C(=S)N1CCN(c2ccccc2)CC1)c1ccccc1
output: > 100 µM

input: Another compound to look at: Cc1ccc(NCSc2ccc(Cl)cc2)cc1
output: > 100 µM

input: Another compound to look at: NC1=NS(=O)(=O)N=C(N)C1=Cc1ccc([N+](=O)[O-])o1
output: 70 µM

input: Another compound to look at: O=C(Cc1nc2ccc(C(=O)c3ccccc3)cc2[nH]c1=O)C(=O)Nc1ccccc1[N+](=O)[O-]
output: > 100 µM

input: Another compound to look at: O=C(C[C@@H]1NCCC[C@H]1O)Cn1cnc2cc(Br)c(Cl)cc2c1=O
output: 0.128 µM

input: Another compound to look at: CC(=O)Oc1ccc2cc(Oc3ccc(Cl)cc3)c(=O)oc2c1
output: > 100 µM

input: Another compound to look at: CCN(CC)CCOc1ccc(/C=C2\C[C@H]3[C@@H]4CC=C5C[C@@H](OC(C)=O)CC[C@]5(C)[C@H]4CC[C@]3(C)[C@H]2OC(C)=O)cc1OC
output: 24.2 µM

input: Another compound to look at: O=C(c1ccccc1F)c1c(NCc2ccccc2)c(=O)c1=O
output: > 100 µM

input: Another compound to look at: COc1ccc(S(=O)(=O)N/N=C/C(=O)O)cc1
output: 887 µM

input: Another compound to look at: COC(=O)[C@H](Cc1ccccc1)NC(=O)c1csc([C@@H](C[C@H](C(C)C)N(C)C(=O)[C@@H](NC(=O)[C@H]2CCCCN2C)C2CC2)OC(C)=O)n1
output: > 25 µM

input: Another compound to look at: COc1c(O)c(OC)c(C(=O)/C=C/c2ccccc2)c(O)c1OC
output: > 100 µM

input: Another compound to look at: CCOC(=O)/C=C1\Nc2ccccc2C(c2ccccc2)=NC1OC(C)=O (configuration not stated)
output: > 100 µM

input: Another compound to look at: c1ccc(C2=NN3CN(N2)c2ccccc2OCCCOc2ccccc23)cc1
output: > 100 µM
